Listed below: maximum AR degradation Dmax values for each entry.
target: AR (Homo sapiens, UniProt P10275+P40337, T878A); construct: degradation Dmax of AR in LNCaP cells; endogenous in cells; host or cells: LNCaP; assay: AR degradation in LNCaP cells (androgen receptor ELISA); assay type: cell-based; settings: LNCaP cells
Sequence (Q15370 whole entry): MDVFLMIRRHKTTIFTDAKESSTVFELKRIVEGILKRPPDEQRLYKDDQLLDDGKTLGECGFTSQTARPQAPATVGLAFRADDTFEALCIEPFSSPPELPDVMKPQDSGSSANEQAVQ
Sequence (P40337 whole entry): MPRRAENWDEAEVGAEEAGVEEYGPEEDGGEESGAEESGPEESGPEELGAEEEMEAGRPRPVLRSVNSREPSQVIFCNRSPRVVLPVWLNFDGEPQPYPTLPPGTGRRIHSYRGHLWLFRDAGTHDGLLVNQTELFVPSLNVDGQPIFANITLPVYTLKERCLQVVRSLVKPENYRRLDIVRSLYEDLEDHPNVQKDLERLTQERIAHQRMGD
Sequence (P10275 whole entry T878A): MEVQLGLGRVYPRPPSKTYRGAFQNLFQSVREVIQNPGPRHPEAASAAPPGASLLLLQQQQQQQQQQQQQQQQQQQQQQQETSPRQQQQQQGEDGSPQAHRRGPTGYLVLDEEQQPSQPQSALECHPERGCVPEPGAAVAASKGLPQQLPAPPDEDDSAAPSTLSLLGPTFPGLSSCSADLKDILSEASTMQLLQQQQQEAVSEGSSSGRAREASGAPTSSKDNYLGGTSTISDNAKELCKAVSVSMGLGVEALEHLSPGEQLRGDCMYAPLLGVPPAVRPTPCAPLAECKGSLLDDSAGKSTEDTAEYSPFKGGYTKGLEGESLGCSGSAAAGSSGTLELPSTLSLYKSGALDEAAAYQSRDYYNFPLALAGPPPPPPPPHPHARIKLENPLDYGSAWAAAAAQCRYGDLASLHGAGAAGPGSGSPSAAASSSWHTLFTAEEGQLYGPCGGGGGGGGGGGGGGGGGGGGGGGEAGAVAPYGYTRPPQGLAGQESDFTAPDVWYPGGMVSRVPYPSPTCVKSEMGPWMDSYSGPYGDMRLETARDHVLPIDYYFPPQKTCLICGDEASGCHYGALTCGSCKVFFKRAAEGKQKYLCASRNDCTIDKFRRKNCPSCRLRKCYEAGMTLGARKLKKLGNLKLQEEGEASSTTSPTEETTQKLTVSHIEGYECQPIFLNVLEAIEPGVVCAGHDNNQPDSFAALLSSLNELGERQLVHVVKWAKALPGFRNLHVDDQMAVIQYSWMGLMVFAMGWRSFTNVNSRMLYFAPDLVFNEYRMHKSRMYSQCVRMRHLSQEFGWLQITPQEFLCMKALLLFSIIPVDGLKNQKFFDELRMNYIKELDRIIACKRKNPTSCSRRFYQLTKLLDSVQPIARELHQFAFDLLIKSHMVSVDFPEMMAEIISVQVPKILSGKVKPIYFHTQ
Sequence (Q15369 whole entry, further chain): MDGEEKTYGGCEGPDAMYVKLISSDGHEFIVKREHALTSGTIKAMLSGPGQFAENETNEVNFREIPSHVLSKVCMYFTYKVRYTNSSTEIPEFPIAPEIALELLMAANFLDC
MEASURED_ATTRIBUTE: maximum AR degradation Dmax (%)

• Cc1ncsc1-c1ccc(CNC(=O)[C@@H]2C[C@@H](O)CN2C(=O)[C@@H](NC(=O)COCCOc2ccc(N3C(=S)N(c4ccc(C#N)c(C(F)(F)F)c4)C(=O)C3(C)C)cc2)C(C)(C)C)cc1 [Compound 2] = 51
• Cc1ncsc1-c1ccc(CNC(=O)[C@@H]2C[C@@H](O)CN2C(=O)[C@@H](NC(=O)COCCCCOCCCCCOc2ccc(N3C(=S)N(c4ccc(C#N)c(C(F)(F)F)c4)C(=O)C3(C)C)cc2)C(C)(C)C)cc1 [Compound 10] = 77
• Cc1ncsc1-c1ccc(CNC(=O)[C@@H]2C[C@@H](O)CN2C(=O)[C@@H](NC(=O)COCCOCCCCCOCCCCCOCCOCCOc2ccc(N3C(=S)N(c4ccc(C#N)c(C(F)(F)F)c4)C(=O)C3(C)C)cc2)C(C)(C)C)cc1 [Compound 18] = 47
• Cc1ncsc1-c1ccc(CNC(=O)[C@@H]2C[C@@H](O)CN2C(=O)[C@@H](NC(=O)COCCCOCCCOc2ccc(N3C(=S)N(c4ccc(C#N)c(C(F)(F)F)c4)C(=O)C3(C)C)cc2)C(C)(C)C)cc1 [Compound 7] = 56

----------
target: Androgen Receptor (Homo sapiens, UniProt P10275); assay: Cell-based ligand (R1881) displacement assay, binary binding to AR; settings: read-out: binary binding potency IC50^AR in cells
Sequence (P10275 whole entry): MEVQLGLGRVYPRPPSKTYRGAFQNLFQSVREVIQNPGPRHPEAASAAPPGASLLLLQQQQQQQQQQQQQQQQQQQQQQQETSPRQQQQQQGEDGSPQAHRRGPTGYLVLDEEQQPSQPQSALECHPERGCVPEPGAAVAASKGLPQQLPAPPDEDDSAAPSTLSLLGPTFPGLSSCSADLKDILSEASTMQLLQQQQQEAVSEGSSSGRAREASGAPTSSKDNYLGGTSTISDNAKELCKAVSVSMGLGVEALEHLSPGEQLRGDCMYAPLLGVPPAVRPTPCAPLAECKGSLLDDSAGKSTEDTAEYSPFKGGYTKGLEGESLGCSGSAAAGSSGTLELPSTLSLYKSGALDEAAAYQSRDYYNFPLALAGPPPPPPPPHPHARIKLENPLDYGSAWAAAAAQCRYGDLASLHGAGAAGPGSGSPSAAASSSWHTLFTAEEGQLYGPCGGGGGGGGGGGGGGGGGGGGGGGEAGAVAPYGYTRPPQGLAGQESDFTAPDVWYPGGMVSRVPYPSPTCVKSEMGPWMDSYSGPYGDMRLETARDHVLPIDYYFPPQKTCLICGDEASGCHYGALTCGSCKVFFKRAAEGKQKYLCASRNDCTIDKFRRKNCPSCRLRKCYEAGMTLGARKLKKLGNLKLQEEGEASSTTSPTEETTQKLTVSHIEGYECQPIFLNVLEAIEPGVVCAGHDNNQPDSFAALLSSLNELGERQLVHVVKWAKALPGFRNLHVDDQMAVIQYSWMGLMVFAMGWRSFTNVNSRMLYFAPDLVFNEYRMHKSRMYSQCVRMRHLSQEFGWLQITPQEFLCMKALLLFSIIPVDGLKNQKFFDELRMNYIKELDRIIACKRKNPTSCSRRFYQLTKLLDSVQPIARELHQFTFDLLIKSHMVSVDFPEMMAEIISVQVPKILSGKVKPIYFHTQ
MEASURED_ATTRIBUTE: IC50 (nM)

• Cc1ncsc1-c1ccc(CNC(=O)[C@@H]2C[C@@H](O)CN2C(=O)[C@@H](NC(=O)COCCCOCCCCCOc2ccc(N3C(=S)N(c4ccc(C#N)c(C(F)(F)F)c4)C(=O)C3(C)C)cc2)C(C)(C)C)cc1 [Compound 9] = 810
• Cc1ncsc1-c1ccc(CNC(=O)[C@@H]2C[C@@H](O)CN2C(=O)[C@@H](NC(=O)COCCOCCOCCCCCOc2ccc(N3C(=S)N(c4ccc(C#N)c(C(F)(F)F)c4)C(=O)C3(C)C)cc2)C(C)(C)C)cc1 [Compound 11] = 1150
• Cc1ncsc1-c1ccc(CNC(=O)[C@@H]2C[C@@H](O)CN2C(=O)[C@@H](NC(=O)COCCOCCCCOCCCCOCCOCCOc2ccc(N3C(=S)N(c4ccc(C#N)c(C(F)(F)F)c4)C(=O)C3(C)C)cc2)C(C)(C)C)cc1 [Compound 17] = 1420
• Cc1ncsc1-c1ccc(CNC(=O)[C@@H]2C[C@@H](O)CN2C(=O)[C@@H](NC(=O)COCCOc2ccc(N3C(=S)N(c4ccc(C#N)c(C(F)(F)F)c4)C(=O)C3(C)C)cc2)C(C)(C)C)cc1 [Compound 2] = 2140
• Cc1ncsc1-c1ccc(CNC(=O)[C@@H]2C[C@@H](O)CN2C(=O)[C@@H](NC(=O)COCCOCCCCCOCCCCCOCCOCCOc2ccc(N3C(=S)N(c4ccc(C#N)c(C(F)(F)F)c4)C(=O)C3(C)C)cc2)C(C)(C)C)cc1 [Compound 18] = 960

----------
Listed below: Dmax values for each entry.
molecular target: AR (Homo sapiens, UniProt P10275+P40337, T878A); construct: degradation Dmax of AR in LNCaP cells; endogenous in cells; host or cells: LNCaP; assay: AR degradation in LNCaP cells (androgen receptor ELISA); format: cell-based; conditions: LNCaP cells; read-out: maximum AR degradation Dmax
MEASURED_ATTRIBUTE: Dmax (%)

• Cc1ncsc1-c1ccc(CNC(=O)[C@@H]2C[C@@H](O)CN2C(=O)[C@@H](NC(=O)COCCOCCOCCCCOCCOCCOc2ccc(N3C(=S)N(c4ccc(C#N)c(C(F)(F)F)c4)C(=O)C3(C)C)cc2)C(C)(C)C)cc1 = 58
• Cc1ncsc1-c1ccc(CNC(=O)[C@@H]2C[C@@H](O)CN2C(=O)[C@@H](NC(=O)COCCOCCOCCOCCOCCOCCOc2ccc(N3C(=S)N(c4ccc(C#N)c(C(F)(F)F)c4)C(=O)C3(C)C)cc2)C(C)(C)C)cc1 = 90
• Cc1ncsc1-c1ccc(CNC(=O)[C@@H]2C[C@@H](O)CN2C(=O)[C@@H](NC(=O)CCCOc2ccc(N3C(=S)N(c4ccc(C#N)c(C(F)(F)F)c4)C(=O)C3(C)C)cc2)C(C)(C)C)cc1 = 35
• Cc1ncsc1-c1ccc(CNC(=O)[C@@H]2C[C@@H](O)CN2C(=O)[C@@H](NC(=O)COCCOCCOCCCOCCOCCOc2ccc(N3C(=S)N(c4ccc(C#N)c(C(F)(F)F)c4)C(=O)C3(C)C)cc2)C(C)(C)C)cc1 = 52
• Cc1ncsc1-c1ccc(CNC(=O)[C@@H]2C[C@@H](O)CN2C(=O)[C@@H](NC(=O)COCCOCCCCOCCCCOCCOCCOc2ccc(N3C(=S)N(c4ccc(C#N)c(C(F)(F)F)c4)C(=O)C3(C)C)cc2)C(C)(C)C)cc1 = 43

----------
Listed below: DC50 values for each entry.
target: AR (Homo sapiens, UniProt P10275+P40337, T878A); construct: degradation Dmax of AR in LNCaP cells; endogenous in cells; host or cells: LNCaP; assay: AR degradation in LNCaP cells (androgen receptor ELISA); assay type: cell-based; conditions: LNCaP cells; read-out: AR degradation potency DC50
MEASURED_ATTRIBUTE: DC50

• Cc1ncsc1-c1ccc(CNC(=O)[C@@H]2C[C@@H](O)CN2C(=O)[C@@H](NC(=O)COCCOCCOCCCCCOc2ccc(N3C(=S)N(c4ccc(C#N)c(C(F)(F)F)c4)C(=O)C3(C)C)cc2)C(C)(C)C)cc1 [Compound 11] = 11 nM
• Cc1ncsc1-c1ccc(CNC(=O)[C@@H]2C[C@@H](O)CN2C(=O)[C@@H](NC(=O)CCCOc2ccc(N3C(=S)N(c4ccc(C#N)c(C(F)(F)F)c4)C(=O)C3(C)C)cc2)C(C)(C)C)cc1 [Compound 1] = > 3000 nM
• Cc1ncsc1-c1ccc(CNC(=O)[C@@H]2C[C@@H](O)CN2C(=O)[C@@H](NC(=O)COCCOCCCCOCCCCOCCOCCOc2ccc(N3C(=S)N(c4ccc(C#N)c(C(F)(F)F)c4)C(=O)C3(C)C)cc2)C(C)(C)C)cc1 [Compound 17] = > 3000 nM

----------
target: Androgen Receptor (Homo sapiens, UniProt P10275); assay: Cell-based ligand (R1881) displacement assay, binary binding to AR; settings: read-out: binary binding potency IC50^AR in cells
MEASURED_ATTRIBUTE: IC50 (nM)

• Cc1ncsc1-c1ccc(CNC(=O)[C@@H]2C[C@@H](O)CN2C(=O)[C@@H](NC(=O)COCCOCCOCCCOCCOCCOc2ccc(N3C(=S)N(c4ccc(C#N)c(C(F)(F)F)c4)C(=O)C3(C)C)cc2)C(C)(C)C)cc1 [Compound 14] = 4950
• Cc1ncsc1-c1ccc(CNC(=O)[C@@H]2C[C@@H](O)CN2C(=O)[C@@H](NC(=O)COCCOCCOCCOCCOCCOCCOc2ccc(N3C(=S)N(c4ccc(C#N)c(C(F)(F)F)c4)C(=O)C3(C)C)cc2)C(C)(C)C)cc1 [Compound 16] = 1750
• Cc1ncsc1-c1ccc(CNC(=O)[C@@H]2C[C@@H](O)CN2C(=O)[C@@H](NC(=O)CCCOc2ccc(N3C(=S)N(c4ccc(C#N)c(C(F)(F)F)c4)C(=O)C3(C)C)cc2)C(C)(C)C)cc1 [Compound 1] = 970
• Cc1ncsc1-c1ccc(CNC(=O)[C@@H]2C[C@@H](O)CN2C(=O)[C@@H](NC(=O)COCCOCCOCCCCOCCOCCOc2ccc(N3C(=S)N(c4ccc(C#N)c(C(F)(F)F)c4)C(=O)C3(C)C)cc2)C(C)(C)C)cc1 [Compound 15] = 3480

----------
test system: c-Myc expression; test: c-Myc ELISA assay in 22RV1 cells; assay type: cell-based, human; settings: Homo sapiens, 22Rv1, read-out: c-Myc expression inhibition IC50
MEASURED_ATTRIBUTE: IC50 (nM)

* Cc1sc2c(c1C)C(c1ccc(Cl)cc1)=N[C@@H](CC(=O)OC(C)(C)C)c1nnc(C)n1-2 [JQ1, reference compound] | 101

----------
Tested on: c-Myc expression
Assay: c-Myc ELISA assay in 22RV1 cells
Assay type: cell-based, human
Settings: 22RV1 cells, connector composition changes, Table 4; read-out: c-Myc expression inhibition IC50
Protocol: It is composed of a BRD4-binding warhead which is connected to a VHL-binding warhead by a linear connector. […] The connector linking the BRD-4 binding warhead and the cereblon-binding warhead was systematically probed from 2 to 8 atoms. […] The expression level of a downstream protein c-Myc was measured. […] The connector linking the BRD4 warhead and the VHL-binding warhead was systematically probed from 5 to 19 atoms. […] The expression level of a downstream protein c-Myc was measured. […]
Listed below: IC50 values for each entry.
MEASURED_ATTRIBUTE: IC50 (µM)

• Cc1ncsc1-c1ccc(CNC(=O)[C@@H]2C[C@@H](O)CN2C(=O)[C@@H](NC(=O)CCCCCCCCNC(=O)C[C@@H]2N=C(c3ccc(Cl)cc3)c3c(sc(C)c3C)-n3c(C)nnc32)C(C)(C)C)cc1 = 0.0102
• Cc1ncsc1-c1ccc(CNC(=O)[C@@H]2C[C@@H](O)CN2C(=O)[C@@H](NC(=O)COCCCS(=O)(=O)CCNC(=O)C[C@@H]2N=C(c3ccc(Cl)cc3)c3c(sc(C)c3C)-n3c(C)nnc32)C(C)(C)C)cc1 = 0.122
